# Test system: 242566-281-R-J2-PDC complex spheroid viability
# Assay Method Text: Anticancer human tumor 242566-281-R-J2-PDC patient-derived pancreatic carcinoma cell line growth inhibition [RAS]
# Test Settings: second compound 1 µM; first compound 0.3 µM; active compounds read low
Reported Metric: viability, T/C (%)
# value in %; strip the unit string

| Compound | Reported Metric | Observed Value |
| --- | --- | --- |
| CCc1c2c(nc3ccc(O)cc13)-c1cc3c(c(=O)n1C2)COC(=O)[C@]3(O)CC + C#Cc1c(F)ccc2cc(O)cc(-c3ncc4c(N5CC6CCC(C5)N6)nc(OCC56CCCN5CC(F)C6)nc4c3F)c12 | viability, T/C | 30.8 |

Reported viability, T/C, compound CCc1c2c(nc3ccc(O)cc13)-c1cc3c(c(=O)n1C2)COC(=O)[C@]3(O)CC + C=CC(=O)N1CCN(c2nc(OCC3CCCN3C)nc3c(F)c(-c4nc(N)cc(C)c4C(F)(F)F)c(Cl)cc23)C(C)C1 : ____ 10.9

Reported viability, T/C, compound CC1(C)CCC(Nc2ncc(C(F)(F)F)c(-c3c[nH]c4c(P(C)(C)=O)c(C#N)ccc34)n2)CN1 (centres undefined) + C=CC(=O)N1CCN(c2nc(OCC3CCCN3C)nc3c(F)c(-c4nc(N)cc(C)c4C(F)(F)F)c(Cl)cc23)C(C)C1 : ____ 121

Reported viability, T/C, compound CC1(C)CCC(Nc2ncc(C(F)(F)F)c(-c3c[nH]c4c(P(C)(C)=O)c(C#N)ccc34)n2)CN1 (centres undefined) + C#Cc1c(F)ccc2cc(O)cc(-c3ncc4c(N5CC6CCC(C5)N6)nc(OCC56CCCN5CC(F)C6)nc4c3F)c12 : ____ 59.5

====

# System: 242566-281-R-J2-PDC complex spheroid viability
# Assay Method Text: Anticancer human tumor 242566-281-R-J2-PDC cell line growth inhibition [RAS];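 further: spheroids exposed to compound for 7 days before readout; 100% = DMSO vehicle control wells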
# Test Settings: second compound 0.0316 µM; first compound 0.1 µM; active compounds read low
Reported Metric: viability, T/C (%)
# value in %; strip the unit string

| Compound | Observed Value |
| --- | --- |
| NC1c2ccccc2OC12CCN(c1cnc3c(N4CCCc5ncccc54)n[nH]c3n1)CC2 (configuration not stated) + C=CC(=O)N1CCN(c2nc(OCC3CCCN3C)nc3c(F)c(-c4nc(N)cc(C)c4C(F)(F)F)c(Cl)cc23)C(C)C1 | 126 |
| CCC(CC)c1cc(NC2CCC(N)C2)n2nccc2n1 (configuration not stated) + C#Cc1c(F)ccc2cc(O)cc(-c3ncc4c(N5CC6CCC(C5)N6)nc(OCC56CCCN5CC(F)C6)nc4c3F)c12 | 109 |
| Nc1ccn(C2OC(CO)C(O)C2(F)F)c(=O)n1 (configuration not stated) + C#Cc1c(F)ccc2cc(O)cc(-c3ncc4c(N5CC6CCC(C5)N6)nc(OCC56CCCN5CC(F)C6)nc4c3F)c12 | 48.5 |
| O=C(c1ccc(F)c(F)c1Nc1ccc(I)cc1F)N1CC(O)([C@@H]2CCCCN2)C1 + C#Cc1c(F)ccc2cc(O)cc(-c3ncc4c(N5CC6CCC(C5)N6)nc(OCC56CCCN5CC(F)C6)nc4c3F)c12 | 47.9 |
| CC(=O)OC12COC1CC(O)C1(C)C(=O)C(O)C3=C(C)C(OC(=O)C(O)C(NC(=O)OC(C)(C)C)c4ccccc4)CC(O)(C(OC(=O)c4ccccc4)C21)C3(C)C (configuration not stated) + C#Cc1c(F)ccc2cc(O)cc(-c3ncc4c(N5CC6CCC(C5)N6)nc(OCC56CCCN5CC(F)C6)nc4c3F)c12 | 54.2 |
| C[C@@H](NC(=O)c1ncnc(N)c1Cl)c1ncc(C(=O)Nc2cc(C(F)(F)F)c(Cl)cn2)s1 + C=CC(=O)N1CCN(c2nc(OCC3CCCN3C)nc3c(F)c(-c4nc(N)cc(C)c4C(F)(F)F)c(Cl)cc23)C(C)C1 | 124 |

Reported viability, T/C, compound Nc1ccn(C2OC(CO)C(O)C2(F)F)c(=O)n1 (configuration not stated) + C=CC(=O)N1CCN(c2nc(OCC3CCCN3C)nc3c(F)c(-c4nc(N)cc(C)c4C(F)(F)F)c(Cl)cc23)C(C)C1 : ____ 60

Reference for the values: PubChem BioAssay AID2060910
